Data origin: patent US20230192819A1

- TEST SYSTEM: Acro S1 spike protein (SARS-CoV-2) (SARS-CoV-2, UniProt P0DTC2 16-685)
- ASSAY REMARKS: SPR (Carterra LSA); […]; 1:1 model; […]
The entries below come with measured kon values attached.
OBSERVED PROPERTY: kon (M⁻¹ s⁻¹)

BINDER	UNIT TEXT	OBSERVED RESULT
Antibody 1-7 (Fc fusion) EVQLVESGGGLVQPGGSLRLSCAASGGTFSSIGMGWFRQAPGKEREFVAAISWDGGATAYADSVKGRFTISADNSKNTVYLQMNSLKPEDTAVYYCAKEDVGKPFDWGQGTLVTVSS	M⁻¹ s⁻¹	360000
Antibody 1-15 (Fc fusion) EVQLVESGGGLVQPGGSLRLSCAASGGIFSDMFMGWFRQAPGKEREFVATIDWSGDTAFYADSVKGRFTISADNSKNTAYLQMNSLKPEDTAVYYCAVDLSGDAVYDWGQGTLVTVSS	M⁻¹ s⁻¹	90000
Antibody 1-2 (Fc fusion) EVQLVESGGGLVQPGGSLRLSCAASGGSEYSYSTFSSFVMGWFRQAPGKERELVASISWSGGHTFYADSVKGRFTISADNSKNTAYLQMNSLKPEDTAVYYCAAYLRGPYYSSFYDSTKYEWGQGTLVTVSS	M⁻¹ s⁻¹	220000
Antibody 1-13 (Fc fusion) EVQLVESGGGLVQPGGSLRLSCAASGRTTFSSYTMGWFRQAPGKEREFVASITRSGVLNYADSVKGRFTISADNSKNTAYLQMNSLKPEDTAVYYCAKEDVGKPFDWGQGTLVTVSS	M⁻¹ s⁻¹	170000
Antibody 1-10 (Fc fusion) EVQLVESGGGLVQPGSSLRLSCAASGGTFSSIGMGWFRQAPGKEREFVAAISWDGGATAYADSVKGRFTISADNSKNTAYLQMNSLKPEDTAVYYCAKEDVGKPFDWGQGTLVTVSS	M⁻¹ s⁻¹	270000
Antibody 1-17 (Fc fusion) EVQLVESGGGLVQPGGSLRLSCAASGRTIVPYTMGWFRQAPGKEREEVAAISTGGGGTYYADSVKGRFTISADNSKNTAYLQMNSLKPEDTAVYYCAVDGPFGWGQGTLVTVSS	M⁻¹ s⁻¹	330000
Antibody 1-1 (Fc fusion) EVQLVESGGGLVQPGGSLRLSCAASGSIGSINAMGWFRQAPGKEREWVAGISNGGTTNYADSVKGRFTISADNSKNTAYLQMNSLKPEDTAVYYCAADGVPEYSDYASGPVWGQGTLVTVSS	M⁻¹ s⁻¹	620000
